assayedSystem: HDAC6 (Homo sapiens)
measurementProtocol: HDAC activity assay (microfluidics mobility shift), HDAC6
Type: biochemical
setupConditions: compound concentration 1 μM; non-covalent dual inhibitors
experimentalReadout: inhibition at 1 µM (%)

C[C@H](NC(=O)[C@H](CC(=O)NCC(C)(C)C)NC(=O)c1ccc(C(=O)Nc2ccccc2N)cc1)C(=O)NCc1ccc(F)cc1F
13
C[C@H](NC(=O)[C@H](CC(=O)NCC(C)(C)C)NC(=O)CCCCCCC(=O)NO)C(=O)NCc1ccc(F)cc1F
86
COC(=O)c1ccc(C(=O)N[C@@H](CC(=O)NCC(C)(C)C)C(=O)N[C@@H](C)C(=O)NCc2ccc(F)cc2F)cc1
18

====

Here the recorded HDAC1/HDAC6 (HDAC1 IC50/HDAC6 IC50, selectivity for HDAC6) is given for each entry.
assayedSystem: HDAC6 (Homo sapiens, UniProt Q9UBN7)
Sequence (Q9UBN7 whole entry): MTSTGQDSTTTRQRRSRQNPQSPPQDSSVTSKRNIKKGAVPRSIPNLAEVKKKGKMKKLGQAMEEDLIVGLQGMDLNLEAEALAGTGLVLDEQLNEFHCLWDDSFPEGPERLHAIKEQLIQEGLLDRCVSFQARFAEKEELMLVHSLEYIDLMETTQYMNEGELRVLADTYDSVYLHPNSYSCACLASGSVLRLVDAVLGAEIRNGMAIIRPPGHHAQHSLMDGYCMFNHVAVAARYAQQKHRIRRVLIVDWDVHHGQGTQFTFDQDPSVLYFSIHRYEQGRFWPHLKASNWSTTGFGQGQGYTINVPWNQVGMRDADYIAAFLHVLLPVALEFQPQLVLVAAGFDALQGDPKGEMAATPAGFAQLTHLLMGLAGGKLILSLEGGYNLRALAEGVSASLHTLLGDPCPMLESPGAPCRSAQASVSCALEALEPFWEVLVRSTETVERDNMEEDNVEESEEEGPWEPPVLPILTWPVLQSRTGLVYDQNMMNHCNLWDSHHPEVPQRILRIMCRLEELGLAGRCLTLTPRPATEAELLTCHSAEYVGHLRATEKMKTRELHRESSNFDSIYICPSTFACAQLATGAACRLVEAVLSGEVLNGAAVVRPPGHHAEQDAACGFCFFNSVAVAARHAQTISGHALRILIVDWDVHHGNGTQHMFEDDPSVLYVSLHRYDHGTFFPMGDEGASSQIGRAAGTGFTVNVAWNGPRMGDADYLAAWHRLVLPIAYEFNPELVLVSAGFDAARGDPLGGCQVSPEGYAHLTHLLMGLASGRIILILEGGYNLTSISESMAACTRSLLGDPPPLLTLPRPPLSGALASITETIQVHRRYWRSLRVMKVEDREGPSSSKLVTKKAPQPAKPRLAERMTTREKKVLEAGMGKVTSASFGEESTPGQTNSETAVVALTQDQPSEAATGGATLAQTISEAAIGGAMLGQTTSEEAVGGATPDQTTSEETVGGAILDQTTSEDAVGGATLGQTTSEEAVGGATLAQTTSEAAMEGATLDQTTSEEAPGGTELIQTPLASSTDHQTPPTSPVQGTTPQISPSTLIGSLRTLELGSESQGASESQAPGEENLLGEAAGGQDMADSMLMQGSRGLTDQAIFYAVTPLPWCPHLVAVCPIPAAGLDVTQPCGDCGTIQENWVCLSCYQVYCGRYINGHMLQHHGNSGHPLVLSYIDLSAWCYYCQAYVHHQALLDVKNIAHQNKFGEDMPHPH
measurementProtocol: HDAC activity assay (microfluidics mobility shift), HDAC6
Format: biochemical
setupConditions: covalent dual inhibitors
experimentalReadout: HDAC1/HDAC6 (HDAC1 IC50/HDAC6 IC50, selectivity for HDAC6)

CCNC(=O)ONC(=O)c1ccc(C(=O)N[C@@H](Cc2ccccc2)C(=O)N[C@@H](CC(C)C)B2OC3C[C@H]4C[C@H](C4(C)C)[C@@]3(C)O2)cc1 (stereo partly drawn)
>3.69
CC(C)C[C@H](NC(=O)CNC(=O)c1ccc(C(=O)NOC(=O)Nc2ccccc2)cc1)B1OC2C[C@H]3C[C@H](C3(C)C)[C@@]2(C)O1 (stereo partly drawn)
>33.9
CCNC(=O)ONC(=O)c1ccc(C(=O)NCC(=O)N[C@@H](CC(C)C)B2OC3C[C@H]4C[C@H](C4(C)C)[C@@]3(C)O2)cc1 (stereo partly drawn)
>5.58
